tgt: GluA1o-γ8 (GRIA1o-CACNG8 fusion construct; TARP γ8 dependent AMPA receptor) (Homo sapiens (Human), UniProt P42261+Q8WXS5)
Sequence (P42261 other isoform, or with tags, fused parts or gaps): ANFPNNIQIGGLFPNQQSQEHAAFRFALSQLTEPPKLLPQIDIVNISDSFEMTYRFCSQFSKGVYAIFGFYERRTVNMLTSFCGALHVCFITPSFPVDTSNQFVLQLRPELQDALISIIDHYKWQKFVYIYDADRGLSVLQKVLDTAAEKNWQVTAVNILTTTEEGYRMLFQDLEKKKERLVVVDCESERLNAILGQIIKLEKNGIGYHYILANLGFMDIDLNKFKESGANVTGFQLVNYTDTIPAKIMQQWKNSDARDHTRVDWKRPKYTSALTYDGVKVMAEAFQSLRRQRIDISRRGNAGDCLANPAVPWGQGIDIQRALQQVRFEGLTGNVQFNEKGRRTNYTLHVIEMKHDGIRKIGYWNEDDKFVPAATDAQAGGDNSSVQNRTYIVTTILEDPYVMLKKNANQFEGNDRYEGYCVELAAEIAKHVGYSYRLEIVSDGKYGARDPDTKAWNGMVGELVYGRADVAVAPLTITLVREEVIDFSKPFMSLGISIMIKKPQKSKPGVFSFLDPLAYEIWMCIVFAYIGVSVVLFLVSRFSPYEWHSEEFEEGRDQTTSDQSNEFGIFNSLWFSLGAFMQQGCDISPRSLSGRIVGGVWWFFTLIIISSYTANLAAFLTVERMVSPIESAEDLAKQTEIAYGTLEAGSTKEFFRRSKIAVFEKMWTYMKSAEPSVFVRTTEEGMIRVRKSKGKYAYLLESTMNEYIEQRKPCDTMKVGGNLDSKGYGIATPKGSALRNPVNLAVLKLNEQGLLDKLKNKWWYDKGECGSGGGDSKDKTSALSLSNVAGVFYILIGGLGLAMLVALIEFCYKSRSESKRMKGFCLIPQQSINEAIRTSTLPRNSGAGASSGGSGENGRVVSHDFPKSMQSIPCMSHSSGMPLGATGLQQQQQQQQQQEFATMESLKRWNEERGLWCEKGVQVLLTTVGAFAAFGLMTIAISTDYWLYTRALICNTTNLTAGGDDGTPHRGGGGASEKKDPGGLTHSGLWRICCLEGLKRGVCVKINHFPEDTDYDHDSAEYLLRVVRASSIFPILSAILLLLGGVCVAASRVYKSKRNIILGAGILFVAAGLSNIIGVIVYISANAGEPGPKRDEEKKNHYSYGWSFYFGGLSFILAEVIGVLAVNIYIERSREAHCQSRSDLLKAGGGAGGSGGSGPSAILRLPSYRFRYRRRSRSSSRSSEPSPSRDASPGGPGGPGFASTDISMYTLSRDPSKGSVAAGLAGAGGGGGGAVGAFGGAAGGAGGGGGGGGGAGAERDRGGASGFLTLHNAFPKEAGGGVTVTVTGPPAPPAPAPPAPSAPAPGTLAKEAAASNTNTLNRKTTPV
protocol_text: Calcium flux assay (FLIPR), inhibition of glutamate response of GluA1o-γ8 channel
Assay type: cell-based
condition_description: HEK293 cells stably expressing GRIA1o-CACNG8 fusion; 15 μM glutamate; pIC50 = negative log of IC50 in molar; read-out: GluR1-γ8 (pIC50) (converted)
# key: entry, value: log10(IC50)
Hi team, quick reminder: these entries are log10 of IC50 (nM).

Field: example entries. Status: answers known.
>>> measured_number("O=C1CN(c2nccc3c(-c4ccc5c(c4)CC(=O)N5)c(-c4ccc(F)cc4)nn23)CCN1 [Example 168]")
0.10
>>> measured_number("O=c1[nH]c2ccc(-c3c(-c4ccccc4)nc4cnc(C(F)(F)F)cn34)cc2s1 [Example 245]")
1.10
>>> measured_number("O=C1Cc2cc(-c3c(-c4ccc(F)cc4)nc4c(N5CC(F)C5)nccn34)ccc2N1 [Example 59]")
-0.30
>>> measured_number("CC(=O)N1CC=C(c2nccn3c(-c4ccc(O)cc4)c(-c4ccc(F)cc4)nc23)CC1 [Example 130]")
2.20
>>> measured_number("O=C1Cc2cc(-c3c(-c4ccc(F)c(F)c4)nc4c(N5CCOCC5)nccn34)ccc2N1 [Example 35]")
-0.30

Given the entry CN(C)c1nccn2c(-c3ccc4c(c3)CC(=O)N4)c(C(=O)Nc3ccccc3)nc12 [Example 144] , report its measured log10(IC50).
0.80

Given the entry O=C1Cc2cc(-c3c(-c4ccc(F)cc4)nc4c(NC5CCNC5=O)nccn34)ccc2N1 (stereo not shown) [Example 40] , report its measured log10(IC50).
2.40

* * *

tgt: GluA1o-γ8 (GRIA1o-CACNG8 fusion construct; TARP γ8 dependent AMPA receptor) (Homo sapiens (Human), UniProt P42261+Q8WXS5)
protocol_text: Calcium flux assay (FLIPR), inhibition of glutamate response of GluA1o-γ8 channel
Assay type: cell-based
condition_description: HEK293 cells stably expressing GRIA1o-CACNG8 fusion; 15 μM glutamate; pIC50 = negative log of IC50 in molar; read-out: GluR1-γ8 (pIC50) (converted)
# note: exactly 3 nM is not below, so it is Not met; use Met for IC50 strictly under it

Previously resolved entries follow.
>>> assigned_class("CC(=O)N1CCN(c2nccn3c(-c4ccc5[nH]c(=O)[nH]c5c4)c(Cc4ccccc4)nc23)CC1")
"Not met"
>>> assigned_class("CO[C@@H]1CCN(c2nccc3c(-c4ccc5c(c4)CC(=O)N5)c(-c4ccccc4)nn23)C1")
"Met"
>>> assigned_class("CC(C)c1nn2c(N3CCOCC3)nccc2c1-c1ccc2[nH]c(=O)sc2c1")
"Not met"
>>> assigned_class("CC1(O)CN(c2nccc3c(-c4ccc5c(c4)CC(=O)N5)c(-c4ccc(F)cc4)nn23)C1")
"Not met"

IC50 under 3 nM? Item: O=C1Cc2cc(-c3c(-c4ccc(F)cc4)nc4c(N5CC(F)(F)C5)nccn34)ccc2N1
Met

IC50 under 3 nM? Item: O=S1(=O)Cc2cc(-c3c(-c4ccc(F)cc4)nn4c(N5CCOCC5)nccc34)ccc2N1
Met

* * *

tgt: GluA1o-γ8 (GRIA1o-CACNG8 fusion construct; TARP γ8 dependent AMPA receptor) (Homo sapiens (Human), UniProt P42261+Q8WXS5)
protocol_text: Calcium flux assay (FLIPR), inhibition of glutamate response of GluA1o-γ8 channel
Format: cell-based
condition_description: HEK293 cells stably expressing GRIA1o-CACNG8 fusion; 15 μM glutamate; pIC50 = negative log of IC50 in molar; read-out: GluR1-γ8 (pIC50) (converted)
Protocol: This assay was used to test compounds for their ability to inhibit TARP γ8 dependent AMPA receptor activity. The AMPA receptor is a non-selective cation channel activated by glutamate. […] An in vitro assay was used to determine the potency of test compounds as inhibitors of the glutamate response of the channel formed by GluA1o-γ8. […] Calcium flux following the addition of 15 μM glutamate was monitored using a Molecular Devices FLIPR Tetra. […]
quantity: log10 IC50 (log10 of the value in nM)
Hi team, quick reminder: these entries are log10 of IC50 (nM).

>>> measured_number("CC1COCCN1c1nccc2c(-c3ccc4c(c3)CC(=O)N4)c(-c3ccc(F)cc3)nn12 (stereo not drawn) [Example 177]")
-0.70
>>> measured_number("Oc1ccc(-c2c(Cc3cccc(F)c3)nc3c(N4CCOCC4)nccn23)cc1 [Example 96]")
1.30
>>> measured_number("N#Cc1ccc(-c2nc3c(N4CCOCC4)nccn3c2-c2ccc3[nH]c(=O)[nH]c3c2)cc1 [Example 105]")
0.10

Given the entry O=C1Cc2cc(-c3c(C(=O)c4ccccc4)nc4c(N5CCS(=O)(=O)CC5)nccn34)ccc2N1 [Example 157] , report its measured log10 IC50.
0.40

Given the entry O=C1Cc2cc(-c3c(-c4ccc(F)cc4)nc4c(N5CCC5)nccn34)ccc2N1 [Example 58] , report its measured log10 IC50.
0.20

Given the entry O=C1CCN(c2nccn3c(-c4ccc5c(c4)CC(=O)N5)c(-c4ccc(F)cc4)nc23)CC1 [Example 109] , report its measured log10 IC50.
-1.20
